Below, each entry is listed with its recorded melting point.
Write the number in °C without appending the unit.

CN(C)C(=O)Cn1cnc2c(Nc3c(Cl)cc(F)cc3C(F)(F)F)nccc21 | 219.9
[2H]C([2H])([2H])N(C(=O)Cn1cnc2c(Nc3c(C)cc(C(F)(F)F)cc3C)nccc21)C([2H])([2H])[2H] | 208.2
COc1cccc(-n2nc(C)c(Nc3nccc4c3ncn4CC(=O)N(C)C)c2C)c1 | 179.7

[ask] melting point for "Cc1cc(C(F)(F)F)cc(C)c1Nc1nccc2c1ncn2-c1ccc(F)cn1" ?
[reply] 186.5

* * *

Target: recombinant human Meningioma Expressed Antigen 5 (MGEA5), also referred to as O-GlcNAcase (OGA) (Homo sapiens)
Construct: Full length OGA enzyme was purchased at OriGene (cat #TP322411); purchased OriGene TP322411
Sequence (O60502 1-916): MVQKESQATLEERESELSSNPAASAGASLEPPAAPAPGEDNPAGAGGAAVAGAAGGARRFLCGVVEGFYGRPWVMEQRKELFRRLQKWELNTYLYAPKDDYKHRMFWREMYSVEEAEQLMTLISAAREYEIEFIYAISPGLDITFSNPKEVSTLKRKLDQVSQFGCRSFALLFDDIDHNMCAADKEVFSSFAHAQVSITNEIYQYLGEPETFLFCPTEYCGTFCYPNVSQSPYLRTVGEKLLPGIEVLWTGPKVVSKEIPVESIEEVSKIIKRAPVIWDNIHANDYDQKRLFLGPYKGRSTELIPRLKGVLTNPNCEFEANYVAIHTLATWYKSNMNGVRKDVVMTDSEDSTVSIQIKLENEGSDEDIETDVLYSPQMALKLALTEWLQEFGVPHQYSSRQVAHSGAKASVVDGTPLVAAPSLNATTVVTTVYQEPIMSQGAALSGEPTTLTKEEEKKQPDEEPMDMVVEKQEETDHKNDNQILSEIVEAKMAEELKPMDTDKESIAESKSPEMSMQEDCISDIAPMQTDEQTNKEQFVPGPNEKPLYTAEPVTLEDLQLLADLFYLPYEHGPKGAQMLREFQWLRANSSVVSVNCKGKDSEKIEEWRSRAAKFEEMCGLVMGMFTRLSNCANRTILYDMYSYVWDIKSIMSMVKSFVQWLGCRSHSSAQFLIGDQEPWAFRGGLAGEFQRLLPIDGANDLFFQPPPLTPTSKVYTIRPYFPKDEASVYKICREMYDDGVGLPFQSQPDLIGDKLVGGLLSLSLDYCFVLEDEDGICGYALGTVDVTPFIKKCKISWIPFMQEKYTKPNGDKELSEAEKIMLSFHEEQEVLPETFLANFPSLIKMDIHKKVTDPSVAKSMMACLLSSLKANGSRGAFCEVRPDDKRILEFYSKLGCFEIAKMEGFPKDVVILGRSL
Assay: OGA biochemical assay (inhibition of FM-GlcNAc hydrolysis, fluorescence)
Settings: read-out: Enzymatic Emax (%)
reported endpoint: Emax (%)
The response must be a number in % with no trailing unit.

Past entries and their recorded results:
Cc1nn(-c2ccc(F)cn2)c(C)c1Nc1nccc2c1ncn2CC(=O)N(C)C | 100
Cc1cc(C(F)(F)F)cc(C)c1Nc1ncc(F)c2c1ncn2CC(=O)N(C)C | 96
Cc1cc(OC(F)(F)F)cc(C)c1Nc1nccc2c1ncn2CC(=O)N(C)C | 99
CCN(C)C(=O)Cn1cnc2c(Nc3c(C)cc(C(F)(F)F)cc3C)nccc21 | 98
CCCCn1ncc2c(Nc3c(C)cncc3C)nccc21 | 61
Cc1ccnc(C(C)C)c1Nc1nccc2c1ncn2CC(=O)N(C)C | 100
Cc1cc(C(F)(F)F)cc(C)c1Nc1ncc(Cl)c2c1ncn2CC(=O)N(C)C | 91
Cc1cc(C(F)(F)F)cc(C)c1Nc1nccc2c1ncn2CC(=O)N1CCCC1 | 95

# context switch: different compound, same Emax
[ask] Could you share which Emax value was measured for "Cc1cc2c(cnn2C)c(C)c1Nc1nccc2c1ncn2CC(=O)N(C)C" ?
[reply] 98
